Attribution: patent US4118561A

System: S. aureus 53-180
Decision: MIC beneath 0.5 µg/mL gives true; MIC meeting or exceeding 0.5 µg/mL gives false.

> print(dat)
                                   compound  label
1  Nc1nc(N)c2c(ccc3c2ccn3Cc2cccc3cccnc23)n1 [Example 51]   true
2  Cn1c(-c2ccccc2)cc2c3c(N)nc(N)nc3ccc21 [Example 106]  false
3  Cc1ccc2ccccc2c1Cn1ccc2c3c(N)nc(N)nc3ccc21 [Example 49]  false
4  CS(=O)(=O)c1ccc(Cn2ccc3c4c(N)nc(N)nc4ccc32)cc1 [Example 63]   true
5  Nc1nc(N)c2c(ccc3c2cc(Cl)n3Cc2ccccc2)n1 [Example 104]  false

Does Nc1nc(N)c2c(ccc3[nH]ccc32)n1 [Example 1] have MIC strictly under 0.5 µg/mL? false

Please check: MIC for N#Cc1ccccc1Cn1ccc2c3c(N)nc(N)nc3ccc21 [Example 14] , strictly under 0.5 µg/mL or not? true

----------
Test system: Proteus mirabilis 190
Assay: In vivo antibacterial synergism (mouse), Proteus mirabilis 190
Parameters: species or system Proteus mirabilis (infected mice, CD-1)
Conditions: mice, p.o., 0 hours; with SM 1.56 mg. per kg.; 20160 min
List of PD50 SM/Cpd. (compound part) values.

> print(dat)
                                       mol              result
1  N#Cc1cccc(Cn2ccc3c4c(N)nc(N)nc4ccc32)c1    2.67 mg. per kg.
2  N#Cc1ccc(Cn2ccc3c4c(N)nc(N)nc4ccc32)cc1    3.39 mg. per kg.
3    Nc1nc(N)c2c(ccc3c2ccn3Cc2ccc(F)cc2)n1    1.56 mg. per kg.
4        Nc1nc(N)c2c(ccc3c2ccn3-c2nccs2)n1  > 12.5 mg. per kg.
5  N#Cc1ccc(-n2ccc3c4c(N)nc(N)nc4ccc32)cc1    9.39 mg. per kg.
6      Cc1cc2c3c(N)nc(N)nc3ccc2n1Cc1ccccc1    3.11 mg. per kg.

# context switch: different compound, same PD50 SM/Cpd. (compound part)
Return reported PD50 SM/Cpd. (compound part). Input compound: `Nc1nc(N)c2c(ccc3c2ccn3Cc2ccccc2)n1` 7.78 mg. per kg.

----------
Experiment: Antimalarial blood schizonticidal test in mice
Type: in vivo, Plasmodium berghei (infected ICR/HA Swiss mice)
Details: mouse, in vivo, sc, single dose; alive on day 14 considered cured, no 60-day data; read-out: Highest Non-Lethal Dose
Below, each of the compounds is paired with its reported MTD value.
Return type: number; implicit unit mg/kg.

> print(dat)
                                        mol  number
1  Cc1ccc(C)c(Cn2c(C)cc3c4c(N)nc(N)nc4ccc32)c1      80

Shift focus to the following entry.
// fetch MTD given entry `Cc1ccc(Cn2ccc3c4c(N)nc(N)nc4ccc32)c(C)c1` 80

----------
Assay: Acute toxicity in mice, i.p. single dose
Type: in vivo, Charles River COBS CD Strain Albino mice, male
Conditions: mouse, in vivo, ip; mice, single dose, 14 days
MEASURE NAME: LD50 at 336 h (mg/kg)
Just the number in mg/kg, nothing appended.

Dear colleague, please send me the reported LD50 at 336 h for Nc1nc(N)c2c(ccc3c2ccn3Cc2ccccc2)n1 [Example 2] when you can. 54.5
